Attribution: the supplement of paper PMC7877785

I'd be grateful if you could share measured self-splicing fitness (ln) for these entries.
# experimentalDetails: self-splicing fitness, log relative to wild type (ln ratio); higher = more splicing; Tetrahymena group I intron in knt gene, E. coli kanamycin selection, DiMSum; sequences stand for … in CUCUCU…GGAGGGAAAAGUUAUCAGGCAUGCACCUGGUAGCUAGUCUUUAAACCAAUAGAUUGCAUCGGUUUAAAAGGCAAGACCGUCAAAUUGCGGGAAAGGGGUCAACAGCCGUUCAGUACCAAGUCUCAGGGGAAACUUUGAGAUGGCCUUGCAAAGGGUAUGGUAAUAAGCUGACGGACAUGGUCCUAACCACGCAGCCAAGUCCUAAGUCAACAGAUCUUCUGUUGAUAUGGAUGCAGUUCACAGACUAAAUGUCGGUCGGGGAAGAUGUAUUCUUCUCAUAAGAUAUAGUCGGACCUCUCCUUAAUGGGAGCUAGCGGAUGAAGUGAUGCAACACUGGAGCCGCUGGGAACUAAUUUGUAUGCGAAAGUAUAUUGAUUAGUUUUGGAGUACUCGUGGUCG;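 further: selection with 25 µg/mL kanamycin versus none on LB agar overnight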
# studyConditions: 30 °C
Give the value as a plain number.

## Input Indicate its recorded self-splicing fitness (ln); the sequence in question is GGGAAGCAAUAUUACGAACG
## Output -0.494

## Input # return recorded self-splicing fitness (ln) for input GCGUAGCAAUAUUACGGUCC
## Output -1.23

## Input Provide measured self-splicing fitness (ln) value, entry: AAAAAGCAAUAUUACGUAGA
## Output -2.21

## Input Give the reported value of self-splicing fitness (ln) for this record: CAGCAGCAAUAUUACGCAAU
## Output -3.18

## Input Specify self-splicing fitness (ln) for GGCUAGCAAUAUUACGUCGG and stop.
## Output -3.95

## Input Input ACAGAGCAAUAUUACGGUAA , output reported self-splicing fitness (ln).
## Output -3.43

## Input Annotate the sequence AUAUAGCAAUAUUACGUCGG with its measured self-splicing fitness (ln).
## Output -3.37

## Input State its self-splicing fitness (ln) for this sequence: CGGAAGCAAUAUUACGUGUA
## Output -3.19

## Input // Input: ACCUAGCAAUAUUACGAACU . Output its self-splicing fitness (ln) only.
## Output -0.308

## Input Please report the measured self-splicing fitness (ln) for AGGGAGCAAUAUUACGGCUC
## Output -2.18

## Input Provide measured self-splicing fitness (ln) value, entry: CACUAGCAAUAUUACGUUAU
## Output -3.42

## Input State its self-splicing fitness (ln): AGCUAGCAAUAUUACGUCAG
## Output -3.09

## Input Query self-splicing fitness (ln) for GCCGAGCAAUAUUACGACCC
## Output -2.25

## Input Assign self-splicing fitness (ln) to the following record: AGGUAGCAAUAUUACGCAGU
## Output -2.98

## Input Give the value of self-splicing fitness (ln) reported for the following: CGGAAGCAAUAUUACGUCCU
## Output 0.17

## Input Check the records and state self-splicing fitness (ln) for UAGAAGCAAUAUUACGGUGA
## Output -1.28

## Input Please report the measured self-splicing fitness (ln) for UUAAAGCAAUAUUACGCGGC
## Output -2.74

## Input Fill in reported self-splicing fitness (ln) for this entry: AAUAAGCAAUAUUACGGUAA
## Output -1.73

## Input Supply measured self-splicing fitness (ln) of ACACAGCAAUAUUACGAGAU in your reply.
## Output -3.79

## Input Specify reported self-splicing fitness (ln) for the sequence shown: UGCUAGCAAUAUUACGAGAC
## Output -3.12

## Input Look up self-splicing fitness (ln) of UUGAAGCAAUAUUACGUAUA and report it.
## Output -1.25

## Input Output measured self-splicing fitness (ln) for this item: AGAGAGCAAUAUUACGGACG
## Output -2.64

## Input Look up and state reported self-splicing fitness (ln) for CUGCAGCAAUAUUACGGGAC
## Output -2.53

## Input Identify measured self-splicing fitness (ln) corresponding to ACGAAGCAAUAUUACGCCCC
## Output -0.521

## Input Quick one: give measured self-splicing fitness (ln) for CGGUAGCAAUAUUACGUGAU
## Output -1.49

## Input Read the entry AGUAAGCAAUAUUACGAGCG and write its reported self-splicing fitness (ln).
## Output -0.847

## Input Indicate the recorded self-splicing fitness (ln) value for this sequence: UUCAAGCAAUAUUACGAAAG
## Output -3.65

## Input Entry AUAGAGCAAUAUUACGGCUC needs its self-splicing fitness (ln) filled in; supply it.
## Output -0.971

## Input Input GAGAAGCAAUAUUACGGGAU , output reported self-splicing fitness (ln).
## Output -3.32

## Input Answer with reported self-splicing fitness (ln) of ACUGAGCAAUAUUACGGGCU
## Output -3.34

## Input Query self-splicing fitness (ln) for CCCCAGCAAUAUUACGAUCG
## Output -2.85

## Input Quote self-splicing fitness (ln) reported for CGGAAGCAAUAUUACGCUGU please.
## Output -3.49

## Input Given the sequence AGGGAGCAAUAUUACGGCCA , write its reported self-splicing fitness (ln).
## Output -2.33

## Input Identify self-splicing fitness (ln) associated with the sequence UAAGAGCAAUAUUACGUUCG
## Output -1.48

## Input Identify the reported self-splicing fitness (ln) for the following entry. CCGGAGCAAUAUUACGAUCG
## Output -0.502

## Input Read off the recorded self-splicing fitness (ln) for CCAGAGCAAUAUUACGUCAC
## Output -2.34

## Input Give the value of self-splicing fitness (ln) reported for the following: GUCCAGCAAUAUUACGACAA
## Output -1.57

## Input Return reported self-splicing fitness (ln). Input sequence: ACCCAGCAAUAUUACGCACU
## Output -0.41

## Input Tell me self-splicing fitness (ln) reported for ACGUAGCAAUAUUACGAGAU
## Output -2.82

## Input Answer with the recorded self-splicing fitness (ln) of UAAGAGCAAUAUUACGAACA only.
## Output -2.71

## Input Indicate the recorded self-splicing fitness (ln) value for this sequence: UUCGAGCAAUAUUACGACUU
## Output -3.32

## Input In one line, give reported self-splicing fitness (ln) of the entry CGACAGCAAUAUUACGCUGU .
## Output -3.04

## Input Supply recorded self-splicing fitness (ln) for UCGAAGCAAUAUUACGAGGA here.
## Output -3.21

## Input Quick one: give measured self-splicing fitness (ln) for CUGAAGCAAUAUUACGUAGU
## Output -4.3

## Input Specify self-splicing fitness (ln) for UUAGAGCAAUAUUACGCACA and stop.
## Output -0.745

## Input Please report the measured self-splicing fitness (ln) for UAAGAGCAAUAUUACGCGGG
## Output -3.49

## Input Report self-splicing fitness (ln), nothing else, for this sequence: AAUCAGCAAUAUUACGGAUU
## Output -2.89

## Input Note down self-splicing fitness (ln) recorded for GAUGAGCAAUAUUACGGGUG
## Output -2.68

## Input Specify self-splicing fitness (ln) for GCUUAGCAAUAUUACGAUCA and stop.
## Output -1.1

## Input For the sequence AAGCAGCAAUAUUACGCUUU , give its reported self-splicing fitness (ln).
## Output -4.53

## Input Supply reported self-splicing fitness (ln) belonging to this sequence: CAUGAGCAAUAUUACGUGUG
## Output -3.67

## Input Respond only with self-splicing fitness (ln) recorded for ACAUAGCAAUAUUACGUAGC
## Output -2.78

## Input Entry AGACAGCAAUAUUACGAGCU needs its self-splicing fitness (ln) filled in; supply it.
## Output -1.22

## Input Report self-splicing fitness (ln), nothing else, for this sequence: ACGCAGCAAUAUUACGGACG
## Output -1.31

## Input Consider the sequence CGAAAGCAAUAUUACGGUCU and give its recorded self-splicing fitness (ln).
## Output -0.258

## Input Name the recorded self-splicing fitness (ln) of the item AACCAGCAAUAUUACGCGAA in your answer.
## Output -1.11

## Input Quick one: give measured self-splicing fitness (ln) for AGGAAGCAAUAUUACGAGCC
## Output -2.25

## Input Retrieve self-splicing fitness (ln) measured for UUACAGCAAUAUUACGUCAG and print it.
## Output -0.769

## Input Complete the entry with self-splicing fitness (ln) for ACGUAGCAAUAUUACGAAUU
## Output -1.42

## Input Identify measured self-splicing fitness (ln) corresponding to AUGAAGCAAUAUUACGAAGU
## Output -1.21

## Input Retrieve self-splicing fitness (ln) measured for UAGUAGCAAUAUUACGGGUA and print it.
## Output -1.99

## Input // fetch self-splicing fitness (ln) given entry UAAGAGCAAUAUUACGAAUU
## Output -3.74

## Input Provide one value: measured self-splicing fitness (ln) of AGCGAGCAAUAUUACGACGA
## Output -1.13

## Input Read the entry CCUCAGCAAUAUUACGCAGG and write its reported self-splicing fitness (ln).
## Output -3.84

## Input Please supply the value of reported self-splicing fitness (ln) for the item GCAGAGCAAUAUUACGUAUC
## Output -2.59

## Input Specify self-splicing fitness (ln) for AAUGAGCAAUAUUACGUAGG and stop.
## Output -3.19

## Input Consider the sequence UUAGAGCAAUAUUACGUUCG and give its recorded self-splicing fitness (ln).
## Output -1.22
